Attribution: patent US7282507B2

Molecular target: androgen receptor (AdEasy+rAR, COS-7 cells) (Rattus norvegicus, UniProt P15207)
Construct: expressed in transfected cells; host or cells: COS-7 cells transduced with adenovirus AdEasy+rAR
Assay: COS-7 Whole-Cell Androgen Receptor Binding Assay, Adenovirus Transduction
Conditions: concentration of 3000 nM; 3 µM
experimental.endpoint: % Inhibition, COS Binding
Answer as a quantity: numeral, then unit.

I would be grateful if you could provide % Inhibition, COS Binding for each of the following entries.
1. CCSCC(C)(O)c1[nH]c2cc(C(F)(F)F)c(C#N)cc2c1C (single isomer, unassigned) [Compound 234]
2. CCSCC(O)c1cc2cc([N+](=O)[O-])c(C(F)(F)F)cc2[nH]1 (stereo not drawn) [Compound 158]
3. CCSCC(C)(O)c1cc2cc(F)c(C(F)(F)F)cc2[nH]1 (racemic) [Compound 206]

A.
1. 71%
2. 56%
3. −40%

---

Target: androgen receptor (AdEasy+rAR, L929 cells) (Rattus norvegicus, UniProt P15207)
Construct: expressed in transfected cells; host or cells: L929 cells transduced with adenovirus AdEasy+rAR
Sequence (P15207 1-902): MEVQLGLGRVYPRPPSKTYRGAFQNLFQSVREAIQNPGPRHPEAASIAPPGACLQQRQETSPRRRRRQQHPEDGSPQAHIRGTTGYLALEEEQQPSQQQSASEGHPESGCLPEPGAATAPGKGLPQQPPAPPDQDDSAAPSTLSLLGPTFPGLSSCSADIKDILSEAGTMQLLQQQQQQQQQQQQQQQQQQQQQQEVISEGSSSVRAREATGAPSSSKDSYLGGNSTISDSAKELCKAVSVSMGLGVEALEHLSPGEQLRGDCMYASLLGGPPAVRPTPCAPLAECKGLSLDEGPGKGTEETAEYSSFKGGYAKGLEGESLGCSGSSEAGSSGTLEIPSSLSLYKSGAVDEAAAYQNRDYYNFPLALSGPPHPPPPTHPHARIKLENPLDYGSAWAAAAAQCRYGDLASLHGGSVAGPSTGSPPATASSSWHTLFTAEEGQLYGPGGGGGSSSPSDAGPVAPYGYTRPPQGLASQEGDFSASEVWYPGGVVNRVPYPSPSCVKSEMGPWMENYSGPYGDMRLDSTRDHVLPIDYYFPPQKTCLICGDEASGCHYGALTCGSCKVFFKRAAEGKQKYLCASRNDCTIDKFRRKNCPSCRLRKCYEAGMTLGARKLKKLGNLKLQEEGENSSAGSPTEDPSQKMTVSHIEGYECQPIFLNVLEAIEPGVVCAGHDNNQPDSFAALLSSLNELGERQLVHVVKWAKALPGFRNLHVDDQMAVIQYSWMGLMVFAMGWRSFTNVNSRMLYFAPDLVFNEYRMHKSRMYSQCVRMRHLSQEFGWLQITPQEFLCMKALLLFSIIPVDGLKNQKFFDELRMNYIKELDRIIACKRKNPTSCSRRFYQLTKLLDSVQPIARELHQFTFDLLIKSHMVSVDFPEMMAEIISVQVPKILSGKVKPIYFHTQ
Assay: L929 Androgen Receptor Functional Assay, Adenovirus Transduction
Format: cell-based
Conditions: antagonist testing with R1881
Please assign NO whenever IC50 is at or above 500 nM, and YES whenever it is below.

Use these answered entries as a reference point.
CCSCC(O)(CC)c1cc2cc(C#N)c(C(F)(F)F)cc2[nH]1 (stereo not shown) :: YES
CCSCC(C)(O)c1cc2cc(C#N)c(Cl)cc2[nH]1 (stereo not shown) :: YES
CCS(=O)(=O)CC(C)(O)c1cc2cc([N+](=O)[O-])c(C(F)(F)F)cc2[nH]1 (stereo not shown) :: NO
CC(O)(CSCC(F)(F)F)c1[nH]c2cc(C(F)(F)F)c([N+](=O)[O-])cc2c1I (stereo not shown) :: YES
CCSCC(C)(OC)c1cc2cc(C#N)c(C(F)(F)F)cc2n1C (stereo not shown) :: NO

Q. Find out if reported IC50 for CCSCC(C)(O)c1[nH]c2cc(C(F)(F)F)c(C#N)cc2c1C (single isomer, unassigned) [Compound 233] is less than 500 nM
A. YES

Q. Does this molecule meet the criterion IC50 < 500 nM? CC(O)(CS(=O)(=O)c1ccc(N)cc1)c1cc2cc(Cl)c(C(F)(F)F)cc2[nH]1 (stereo not shown)
A. NO

Q. I wonder whether CCSCC(C)(O)c1cc2cc(C#N)c(C(F)(F)F)cc2n1C (stereo not shown) has IC50 below 500 nM. Can you tell?
A. NO

Q. API: query returns whether the molecule falls strictly under 500 nM in IC50. Query: CCSCC(C)(O)c1cc2cc(C#N)c(C(F)(F)F)cc2[nH]1 (stereo not shown)
A. YES

---

Please provide measured % Inhibition, COS Binding for the entries that follow.
Molecular target: androgen receptor (AdEasy+rAR, COS-7 cells) (Rattus norvegicus)
Construct: expressed in transfected cells; host or cells: COS-7 cells transduced with adenovirus AdEasy+rAR
Assay: COS-7 Whole-Cell Androgen Receptor Binding Assay, Adenovirus Transduction
Settings: concentration of 3000 nM; 3 µM
Provide a numeric answer, followed by its unit.

Example cases with answers are listed next.
CC(O)(CS(C)(=O)=O)c1cc2cc([N+](=O)[O-])c(C(F)(F)F)cc2[nH]1 (stereo not shown) [Compound 147] :: 6.1%
CC(O)(CSCC(F)(F)F)c1cc2cc([N+](=O)[O-])c(C(F)(F)F)cc2[nH]1 (stereo not shown) [Compound 201] :: 86%
CC(O)(CS(C)(=O)=O)c1cc2cc([N+](=O)[O-])c(C(F)(F)F)cc2[nH]1 (stereo not shown) [Compound 140] :: 51.5%

Next compound, % Inhibition, COS Binding to be filled in.
// sample CC(O)(CSCC(F)(F)F)c1cc2cc([N+](=O)[O-])c(C(F)(F)F)cc2[nH]1 (single isomer, unassigned) [Compound 202] , its % Inhibition, COS Binding was 50%

---

Molecular target: androgen receptor (rat ventral prostate cytosol) (Rattus norvegicus, UniProt P15207)
Construct: from tissue; host or cells: ventral prostate cytosol of castrated male Sprague Dawley or Wistar rats
Assay: Androgen Receptor Binding Using Rat Ventral Prostate Cytosol
Conditions: Concentration 1000 nM; read-out: % Inhibition, Androgen Receptor Binding (Rat Cytosol)
Consider the following compounds; for each one, report its inhibition at 1 µM.
Note: a bare number is incomplete; add the unit.

CC(O)(COC(=O)c1ccc(Cl)cc1)c1cc2cc([N+](=O)[O-])c(C(F)(F)F)cc2[nH]1 (stereo not shown) [Compound 55] :: 5.5%
CC(O)(CSc1ccc(Cl)cc1)c1cc2cc([N+](=O)[O-])c(C(F)(F)F)cc2o1 (racemic) [Compound 8] :: -2%
CC(O)(C[S+]([O-])c1ccc(Cl)c(Cl)c1)c1cc2cc(Cl)c(C(F)(F)F)cc2[nH]1 (stereo not shown) [Compound 116] :: 28.4%
CC(O)(COC(=O)c1ccc([N+](=O)[O-])cc1)c1cc2cc([N+](=O)[O-])c(C(F)(F)F)cc2[nH]1 (stereo not shown) [Compound 63] :: 47.5%
CC(O)(CSc1ccc(F)cc1)c1cc2nc(C(F)(F)F)ccc2[nH]1 (racemic) [Compound 5] :: 5.5%
CC(O)(COC(=O)c1ccccc1)c1cc2cc(Cl)c(C(F)(F)F)cc2[nH]1 (stereo not shown) [Compound 61] :: 73%

Proceeding to the next compound to report its inhibition at 1 µM.
The measured inhibition at 1 µM that CC(CO)(Sc1ccc(Cl)cc1)c1cc2cc(Cl)c(C(F)(F)F)cc2[nH]1 (racemic) [Compound 253] showed for androgen receptor (rat ventral prostate cytosol) (Rattus norvegicus, UniProt P15207) is 33.5%

---

Target: androgen receptor (AdEasy+rAR, COS-7 cells) (Rattus norvegicus)
Construct: expressed in transfected cells; host or cells: COS-7 cells transduced with adenovirus AdEasy+rAR
Test: COS-7 Whole-Cell Androgen Receptor Binding Assay, Adenovirus Transduction
Conditions: concentration of 3000 nM
experimental.endpoint: inhibition at 3 µM (%)
One number for each entry, in %.

Consider the reported inhibition at 3 µM for these compounds:
CC(O)(CSc1ccc(N)cc1)c1cc2cc(Cl)c(C(F)(F)F)cc2[nH]1 (stereo not shown) [Compound 104] :: 94
CC(O)(CSC1CCCC1)c1cc2cc([N+](=O)[O-])c(C(F)(F)F)cc2[nH]1 (stereo not shown) [Compound 173] :: 17
CC(C)SCC(C)(O)c1cc2cc([N+](=O)[O-])c(C(F)(F)F)cc2[nH]1 (stereo not shown) [Compound 164] :: 68
CSCC(C)(O)c1cc2cc([N+](=O)[O-])c(C(F)(F)F)cc2[nH]1 (single isomer, unassigned) [Compound 145] :: 84.7
COc1ccc(S(=O)(=O)CC(C)(O)c2cc3cc(Cl)c(C(F)(F)F)cc3n2S(C)(=O)=O)cc1 (stereo not shown) [Compound 128] :: 21

State recorded inhibition at 3 µM for all listed compounds.
1. CCSCC(C)(O)c1cc2cc([N+](=O)[O-])c(C(F)(F)F)cc2n1C (racemic) [Compound 165]
2. CCSCC(O)(CC)c1cc2cc([N+](=O)[O-])c(C(F)(F)F)cc2[nH]1 (stereo not shown) [Compound 169]
3. CSCCC(C)(O)c1cc2cc([N+](=O)[O-])c(C(F)(F)F)cc2[nH]1 (stereo not shown) [Compound 47]
4. CC(O)(CSCC(F)(F)F)c1cc2cc(Cl)c(C(F)(F)F)cc2[nH]1 (stereo not shown) [Compound 190]

A.
[69, 90, 78, 100]
